Read-out: Macrophage colony-stimulating factor (MCSF), CSF1 (gene 1435)
Assay: BSK_CASM3C_MCSF: BioMAP Diversity Plus: CASM3C Assay for Macrophage colony-stimulating factor (MCSF) Biomarker Activity (AID 2283044);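 further: M-CSF protein amount quantified by ELISA after 24 h exposure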
Conditions: primary human coronary artery smooth muscle cells; actives raise or lower the signal
Calls of active or inactive are those of the source. How the source made its calls: active means hit-call score of the fitted dose curve at least 0.9, where 1 is the maximum; inactive means score below 0.9.
Write down the outcome that applies. Available outcomes: T = active, F = inactive

Here's what some known entries look like.
COCCOCCO	F
O=P1(N(CCCl)CCCl)NCCCO1 (configuration not stated)	F
CCNc1nc(Cl)nc(NC(C)(C)C)n1	F
C=CC(=O)OCC(CC)(COC(=O)C=C)COC(=O)C=C	T
O=C(O)C(F)(F)C(F)(F)C(=O)O	F

**Q:** Which outcome was assigned to O=C(O)C(F)(F)OC(F)(F)C(F)(F)OC(F)(F)F in this test?
**A:** F

**Q:** So what was the verdict on CCC(C)(C)c1ccc(O)cc1 in this test?
**A:** F
